Origin of the recorded values: patent US20110236380A1

Some binders, each annotated with its measured pKd.
# experimental-target: T1, Cynomolgus monkey IL-13 (cynomolgus monkey, UniProt Q0PW92 21-132)
# T1 construct: Biotinylated and captured on a streptavidin chip in the Biacore assays; also called cyno IL-13; cynomolgous IL-13
# T1 sequence (Q0PW92 entry or part of it): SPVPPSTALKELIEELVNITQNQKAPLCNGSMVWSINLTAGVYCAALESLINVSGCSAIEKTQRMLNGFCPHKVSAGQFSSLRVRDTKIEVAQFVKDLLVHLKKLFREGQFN
# assay-method-text: Biacore SPR, biotinylated IL-13 on streptavidin chip, dAb as analyte, 1:1 model, 25 C
# Procedure: The binding affinities of purified DOM10 dAbs to both human and cyno IL-13 were assessed by Biacore analysis. Analysis was carried out using biotinylated IL-13. About 150 RU of biotinylated IL-13 was coated to a streptavidin (SA) chip (Biacore, GE healthcare). […] Data were analyzed using BIAevaluation software (Biacore, GE Healthcare) and fitted to the 1:1 model of binding. […]
pKd: −log10 of the molar value.
reported-property: pKd

[[record]]
binder = "DOM10-53-568 (other) VH: GVQLLESGGGLVQPGGSLRLSCAASGFVFAWYDMGWVRQAPGKGLEWVSSIDWHGKITYYADSVKGRFTISRDNSKNTLYLQMNSLRAEDTAVYYCATAEDEPGYDYWGQGTLVTVSS"
numeric_value = 8.80

[[record]]
binder = "DOM10-53-474 (other, Anti-IL-13 immunoglobulin single variable domain (dAb), monomer) VH: GVQLLESGGGLVQPGGSLRLSCAASGFTFAWYDMGWVRQAPGKGLEWVSSIDWHGEVTYYADSVKGRFTISRDNSKNTLYLQMNSLRAEDTAVYYCATAEDEPGYDYWGQGTLVTVSS"
numeric_value = 8.03

